- ASSAY_DETAILS: amyloid nucleation score (Sup35N fusion, yeast selection) (log enrichment); library NNK2; higher = more nucleation; inactive = no reads after selection;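 further: zero at mode of non-aggregating sequences after 7 days selection at 30°C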
PROPERTY_NAME: amyloid nucleation score

# ENTRY_SEQUENCE, amyloid nucleation score
rows = [
    ("LWHHIHSDLMTIYFVLDSSG", "inactive"),
    ("HIIPEYRVFLLLFHDDGAGF", "inactive"),
    ("MFSPQLSALMILVSYMHDGW", 2.04),
    ("FVPSSLEGPLAGCYSAFIFE", "inactive"),
    ("LPCFYEVCQTSHYRFYFIGK", 1.96),
]

Find the recorded amyloid nucleation score belonging to `FLSVTFFRLIRCMAL` and report it.
inactive

Entry under review: `RKQNTVQWSNHFLHCKMPST` . Reported amyloid nucleation score?
inactive

----------
- ASSAY_DETAILS: amyloid nucleation score (Sup35N fusion, yeast selection) (log enrichment); library NNK2; higher = more nucleation; inactive = no reads after selection
PROPERTY_NAME: amyloid nucleation score
Reply with just the number.

# SUBSTANCE, amyloid nucleation score
measured = [
    ("NADKVQGMRMNRDWYSWCCL", 5.32),
]

Suppose we examine the substance `FLVLVWSRCSNLFL` ; what amyloid nucleation score value has been reported?
2.86

Any idea what amyloid nucleation score was measured for `LWRIVSWVECIRCTNP` ?
0.182

Consider the substance `CAFVGKVSTARLVSSRNSFN` and give its measured amyloid nucleation score.
5.8

# amyloid nucleation score lookup, item `MPLLRVVMTLRHKSLFKAEM`
-0.272

----------
- ASSAY_DETAILS: amyloid nucleation score (Sup35N fusion, yeast selection) (log enrichment); library NNK1; higher = more nucleation; inactive = no reads after selection
PROPERTY_NAME: amyloid nucleation score

Examples with answers:
# ENTRY_SEQUENCE, amyloid nucleation score
measured = [
    ("PWLKVQFVKREVTIDFRVRV", "inactive"),
    ("LHSIDVDIDVEFLSTHRDGP", "inactive"),
    ("PPTGTLSRHVRSSVQGMGVA", "inactive"),
    ("SINHNGPDQLKGVPFSCSCV", "inactive"),
    ("SYNFWLRMAGRCSKM", -0.618),
    ("VRNVISNKYCRAGYLTKYLL", -0.16),
]

Data request, read-out amyloid nucleation score, for `RWCLSTRKFSWR`
0.305

Reported amyloid nucleation score, sequence `AARVGVVVF` : ____
0.065

# query: amyloid nucleation score of entry `RCPYSYHGYSVNNWGSAWT`
0.487

Which amyloid nucleation score value is on record for `QTRVCTNDKSSFTLQTGRW` ?
3.26

For the sequence shown here, `RGSYHRLWCI` , give the reported amyloid nucleation score.
0.114

amyloid nucleation score lookup needed for `NDRPMMEVGMDPTPAGVLRE` , thanks.
0.276

Reported amyloid nucleation score for `IVSKFSYQFKSIGINFYFFR` : what is it?
4.18

----------
- ASSAY_DETAILS: amyloid nucleation score (Sup35N fusion, yeast selection) (log enrichment); library NNK3; higher = more nucleation; inactive = no reads after selection
PROPERTY_NAME: amyloid nucleation score

Consider the reported amyloid nucleation score for these sequences:
# ENTRY_SEQUENCE, amyloid nucleation score
rows = [
    ("MMLDTWVTYPMREKLDAYRV", "inactive"),
    ("VRGNYRNSFACRVLNHDQFW", "inactive"),
    ("GLVCFYTGLDVMLDTREFYR", "inactive"),
    ("YLVSYFNRGQSAFRFWDKFA", "inactive"),
    ("KFSTTFVTCSIVLVRILLDL", "inactive"),
    ("SAFGTQGYCKSSVFPEASPR", "inactive"),
]

I'd like to know its amyloid nucleation score. The sequence in question is `TYGSVNCVSLMCSVVVLFAM`
inactive

So what does the record say about amyloid nucleation score for `MSLIRYKLG` ?
inactive

----------
- ASSAY_DETAILS: amyloid nucleation score (Sup35N fusion, yeast selection) (log enrichment); library NNK1; higher = more nucleation; inactive = no reads after selection
PROPERTY_NAME: amyloid nucleation score

# SUBSTANCE, MEASURED
records = [
    ("LFRFNWLDSNPV", "inactive"),
    ("HRFSCG", "inactive"),
    ("SASWGRYGERLHCDQRYFII", "inactive"),
]

----------
- ASSAY_DETAILS: amyloid nucleation score (Sup35N fusion, yeast selection) (log enrichment); library NNK3; higher = more nucleation; inactive = no reads after selection
PROPERTY_NAME: amyloid nucleation score

# SUBSTANCE, PROPERTY_NAME, MEASURED
data = [
    ("PNCVISSLTFRWVIFSECEP", "amyloid nucleation score", "inactive"),
    ("RSGSLIGAVYRNMVVLNRMG", "amyloid nucleation score", "inactive"),
    ("YSFSRY", "amyloid nucleation score", "inactive"),
    ("FGQVKSCLAPCKSAAKH", "amyloid nucleation score", "inactive"),
]

Which amyloid nucleation score reading was recorded for the substance `VKLFKVPLVLSMRL` ?
inactive

Please give the measured amyloid nucleation score for this substance: `HTRWLGYNSHRGYLFLMSKF`
0.104

----------
Reported amyloid nucleation score by item:
- ASSAY_DETAILS: amyloid nucleation score (Sup35N fusion, yeast selection) (log enrichment); library NNK2; higher = more nucleation; inactive = no reads after selection

# SUBSTANCE, PROPERTY_NAME, MEASURED
data = [
    ("IHNWIDSVERTALDMWERNA", "amyloid nucleation score", 1.98),
    ("EFIEYTSFYWWNLLRLGVHS", "amyloid nucleation score", -0.61),
    ("SGSIVRGLCVVFSCVFKGSL", "amyloid nucleation score", -0.874),
    ("IIQISSYSALWFRW", "amyloid nucleation score", 0.724),
    ("SYYELGNDLSACYFYCHRVA", "amyloid nucleation score", -0.253),
]

I have this substance here, `FDRRVDV` , and I need its recorded amyloid nucleation score.
-0.076

Request the reported amyloid nucleation score associated with `WSRQHDSLMVLWGCRGYY`
0.148

----------
- ASSAY_DETAILS: amyloid nucleation score (Sup35N fusion, yeast selection) (log enrichment); library NNK1; higher = more nucleation; inactive = no reads after selection
Please use 1 whenever amyloid nucleation score is not below -0.01, and -1 whenever it is.

Here are 3 substances together with their reported answers.
# SUBSTANCE, ASSIGNED_LABEL
data = [
    ("LPIRASGNHL", 1),
    ("AVCVEGQLANSGHRGTGNGN", 1),
    ("LLNRSALCWMCCTKDSWLLT", 1),
]

Would you say `HLSVMMGFGFRTFNMIVMVC` shows amyloid nucleation score at minimum -0.01?
1

Does the substance `VRRSEHSRLSYEWGECLRLT` have recorded amyloid nucleation score that is -0.01 or more?
-1

State whether the measured amyloid nucleation score reaches -0.01, counting equality as reaching it, for `LVTMLLNKYIVNRSHDGVRI`
1

Quick check: does `DCVSHAGQRGIMCRSGSLRF` have amyloid nucleation score greater than or equal to -0.01?
-1

Could you tell me if the measured amyloid nucleation score of `RRRCSSVGRDLMAGSDKRYE` reaches -0.01 or more?
1

Does `QGGRVDGSPPTVYA` have a reported amyloid nucleation score of at least -0.01?
1

In plain terms: is recorded amyloid nucleation score at least -0.01 for `GFLDVALTLSWANHRGDSSV` ?
1

Determine whether measured amyloid nucleation score meets or exceeds -0.01 for `LLPLLSMGRTPLRCKPMASS`
1

# bool: amyloid nucleation score of `FSLDMSTCVLENFVLDTFQH` >= -0.01
-1

Does `MSDRKCKKDSRYLWRDLLPE` have a reported amyloid nucleation score of at least -0.01?
1

Please indicate if the recorded amyloid nucleation score for `IGATLAPLTMSLNRSSDESS` meets or exceeds -0.01.
1

----------
- ASSAY_DETAILS: amyloid nucleation score (Sup35N fusion, yeast selection) (log enrichment); library NNK3; higher = more nucleation; inactive = no reads after selection
PROPERTY_NAME: amyloid nucleation score

# SUBSTANCE, PROPERTY_NAME, MEASURED
data = [
    ("SSFGFKAK", "amyloid nucleation score", "inactive"),
    ("VFFAVF", "amyloid nucleation score", "inactive"),
    ("SHNGLKTLNGSFLAYLSCRA", "amyloid nucleation score", 0.904),
    ("PNLYIMYGAFKIVLHSPDWG", "amyloid nucleation score", "inactive"),
    ("GNALSIEVDGSIK", "amyloid nucleation score", "inactive"),
]

What measured amyloid nucleation score goes with `SGKFTSGLIVRSASIGLYST` ?
0.747

Please report the recorded amyloid nucleation score for `MYDLDHSFCTLLTEVRALMK` .
-0.396
